tested on: A498 renal; assay: NCI tumour cell line growth inhibition, 48 h
For each of the molecules below, state its GI50.

(Q) Given N=C1C(c2nc(-c3ccc(Br)cc3)cs2)=C(O)CN1CC1CCCO1 (configuration not stated) , state its recorded GI50.
(A) > 100 µM

(Q) Given CN(C)CCNc1c2c(c(NCCN(C)C)c3c(CO)c[nH]c13)C(=O)c1ccccc1C2=O , state its recorded GI50.
(A) 18.1 µM

(Q) Given O=C(Nc1ccc(-c2ccnc(Nc3ccc(N4CCOCC4)cc3)n2)cc1)C1CCCN1 (configuration not stated) , state its recorded GI50.
(A) 6.4 µM

(Q) Given COc1cc(/C=C/c2cc(/C=C/c3ccc(O)c(OC)c3)[nH]c(=O)n2)ccc1O , state its recorded GI50.
(A) 3.11 µM

(Q) Given N#C/C(=C\c1cccnc1)c1nc2ccccc2o1 , state its recorded GI50.
(A) 66.4 µM

(Q) Given N#Cc1ncc(N2C(=O)C3(CCC3)N(c3ccc(OC4CCNCC4)nc3)C2=S)cc1C(F)(F)F , state its recorded GI50.
(A) 12.2 µM

(Q) Given C#CCOc1cccc(Nc2ncc3ncn(C4CCN(C(=O)CCl)C4)c3n2)c1 (configuration not stated) , state its recorded GI50.
(A) > 62.5 µM

* * *

tested on: A549 NSCLC; assay: NCI tumour cell line growth inhibition, 48 h
PROPERTY NAME: TGI

(Q) Given O=S(=O)(O)c1ccc(Nc2ccnc3cc(Cl)ccc23)cc1 , state its recorded TGI.
(A) > 100 µM

(Q) Given Cn1c(=O)c2[nH]c(CCC(=O)O)nc2n(C)c1=O , state its recorded TGI.
(A) > 100 µM

(Q) Given CCCCCCCCCCCCCCCCNc1ccn(C2CC(OP(=O)(O)OCC3OC(n4cc(CC)c(=O)[nH]c4=O)CC3O)C(CO)O2)c(=O)n1 (centres undefined) , state its recorded TGI.
(A) 55.2 µM

(Q) Given CC(=O)O[C@H](C[C@H](C(C)C)N(C)C(=O)[C@@H](NC(=O)[C@H]1CCCCN1C)C(C)(C)C)c1nc(C(=O)N[C@@H](Cc2ccccc2)C[C@H](C)C(=O)O)cs1 , state its recorded TGI.
(A) > 25 µM

* * *

tested on: BT-549 breast; test: NCI tumour cell line growth inhibition, 48 h
PROPERTY NAME: TGI

(Q) API: value(readout=TGI, system=BT-549 breast) for record O=C(Nc1cccc([N+](=O)[O-])c1)c1cc2ccccc2cc1O
(A) 5.39 µM

(Q) API: value(readout=TGI, system=BT-549 breast) for record O=C(c1ccccc1)c1ccccc1C(=O)c1ccccc1
(A) > 100 µM

(Q) API: value(readout=TGI, system=BT-549 breast) for record O=S(=O)(O)c1ccc(Nc2ccnc3cc(Cl)ccc23)cc1
(A) > 100 µM

(Q) API: value(readout=TGI, system=BT-549 breast) for record Cc1ccc(S(=O)(=O)c2ccsc2N)cc1
(A) > 100 µM

(Q) API: value(readout=TGI, system=BT-549 breast) for record O=C(O)c1ccc2cccnc2c1O
(A) > 20 µM

(Q) API: value(readout=TGI, system=BT-549 breast) for record S=C(Nc1ccccc1)N1CCn2c1nsc2=Nc1ccccc1
(A) > 100 µM

* * *

tested on: MDA-N; test: NCI tumour cell line growth inhibition, 48 h
For each of the compounds below, state its TGI.
Report the value in µM with no unit label.

(Q) Given Cc1ccc(S(=O)(=O)N2CCN(CCO)CCN(S(=O)(=O)c3ccc(C)cc3)CCN(CCO)CC2)cc1 , state its recorded TGI.
(A) 93.6

(Q) Given C[C@]12CC[C@H]3[C@@H](CCC4=C[C@@H](OC5OCC(OC6OC(CO)C(O)C(O)C6O)C(O)C5O)CC[C@@]43C=O)[C@@]1(O)CCC2C1=CC(=O)OC1 (stereo partly specified) , state its recorded TGI.
(A) 3.03

(Q) Given CC1(C)CC2(C)OC(=N)C1(C#N)C2(C#N)C#N (stereo unspecified) , state its recorded TGI.
(A) 20.2

* * *

For each of the compounds below, state its TGI.
test system: MDA-N; experiment: NCI tumour cell line growth inhibition, 48 h

(Q) Given Cc1ccc2c(=O)c(C(=O)N(CCO)CCO)c[nH]c2n1 , state its recorded TGI.
(A) > 100 µM

(Q) Given COc1ccccc1N1C(=O)/C(=C\c2cccc(Oc3ccccc3)c2)S(=O)(=O)C1c1ccccc1 (centres undefined) , state its recorded TGI.
(A) > 100 µM

(Q) Given COc1ccc(C2NC(=O)Nc3c2c(=O)oc2c3ccc3ccccc32)cc1 (centres undefined) , state its recorded TGI.
(A) > 100 µM

(Q) Given C=Cc1cnc([N+](=O)[O-])n1C , state its recorded TGI.
(A) > 100 µM

(Q) Given COc1ccc(N2C(=O)/C(=C/c3ccc(N(CCC#N)CCC#N)cc3)N=C2c2ccccc2)c(OC)c1 , state its recorded TGI.
(A) > 100 µM

(Q) Given O=C(C=P(c1ccccc1)(c1ccccc1)c1ccccc1)c1ccc(-c2ccc(F)cc2F)cc1 , state its recorded TGI.
(A) 8.8 µM

(Q) Given O=S(=O)(/N=C1/SC(=Nc2ccccc2)N(c2ccccc2)/C1=N/S(=O)(=O)c1ccccc1)c1ccccc1 , state its recorded TGI.
(A) 34.4 µM

(Q) Given COC1=CC(=O)c2c(cc(COP(=O)(N(C)CCBr)N(C)CCBr)n2C)C1=O , state its recorded TGI.
(A) 2.77 µM

(Q) Given CCC1CCC2c3c([nH]c4ccccc34)C3C(=O)N(c4ccc(OC)cc4)C(=O)C3C2C1 (centres undefined) , state its recorded TGI.
(A) > 100 µM

* * *

test system: HOP-92 NSCLC; assay: NCI tumour cell line growth inhibition, 48 h
PROPERTY NAME: TGI

(Q) Given CC[C@H](C)[C@H](NC(=O)c1nccn1C)C(=O)N(C)[C@H](C[C@@H](OC(C)=O)c1nc(C(=O)N[C@@H](Cc2ccccc2)C[C@H](C)C(=O)OC)cs1)C(C)C , state its recorded TGI.
(A) > 33.3 µM

(Q) Given O=C1NC(O)CCN1C1CC(O)C(CO)O1 (centres undefined) , state its recorded TGI.
(A) > 100 µM

(Q) Given O=S(=O)(/N=C1/SC(=Nc2ccccc2)N(c2ccccc2)/C1=N/S(=O)(=O)c1ccccc1)c1ccccc1 , state its recorded TGI.
(A) 62.9 µM

(Q) Given Cc1cc(Cl)ccc1NC(=O)NC(C)(C)COC(=O)Nc1cccc(Cl)c1 , state its recorded TGI.
(A) 26.4 µM

(Q) Given Cc1[nH]n(-c2ccccc2)c(=O)c1C(=O)c1ccccc1 , state its recorded TGI.
(A) > 25 µM

(Q) Given Cc1cc(S(=O)(=O)Nc2nc3cc(-c4ccsc4)sc3c(=O)n2N)c(S)cc1Cl , state its recorded TGI.
(A) > 100 µM

(Q) Given O=c1cccccc1NCCNc1cccccc1=O , state its recorded TGI.
(A) > 100 µM

(Q) Given O=c1oc2ccccc2c(O)c1Cc1cccc(Cc2c(O)c3ccccc3oc2=O)c1 , state its recorded TGI.
(A) > 100 µM

(Q) Given C/C(=C\c1ccccc1)C(=O)NCc1ccc(C(=O)NCCc2c[nH]c3ccccc23)cc1 , state its recorded TGI.
(A) > 100 µM

* * *

For each of the molecules below, state its TGI.
test system: DLD-1 colon; experiment: NCI tumour cell line growth inhibition, 48 h

(Q) Given O=C(O)c1oc2cccc3c2c1CCC3 , state its recorded TGI.
(A) > 100 µM

(Q) Given N[C@H](C(=O)O)[C@@H](Cl)CC(=O)O , state its recorded TGI.
(A) > 100 µM

(Q) Given CCCCCCCCCCCCCCC(O)C1CCC(C(O)CCC(O)CCCCCC(O)CC2=CC(C)OC2=O)O1 (stereo not drawn) , state its recorded TGI.
(A) 11.9 µM

* * *

For each of the compounds below, state its TGI.
test system: SF-268 CNS; assay: NCI tumour cell line growth inhibition, 48 h

(Q) Given Cc1cc(C)c2c(c1)CC1(Cc3c(C)cc(C)cc3C1=O)C2=O (stereo not given) , state its recorded TGI.
(A) > 100 µM

(Q) Given O=C(O)c1ccc2cccnc2c1O , state its recorded TGI.
(A) 98.5 µM

(Q) Given N#Cc1ccc2c(c1)C(=O)c1c-2n(CCCN=[N+]=[N-])c(=O)c2cc([N+](=O)[O-])ccc12 , state its recorded TGI.
(A) > 50 µM

(Q) Given C/C(=C\c1ccccc1)C(=O)NCc1ccc(C(=O)NCCc2c[nH]c3ccccc23)cc1 , state its recorded TGI.
(A) > 100 µM

(Q) Given CC(C)N(Cc1ccccc1)S(=O)(=O)c1n[nH]c(C(C)(C)C)n1 , state its recorded TGI.
(A) > 100 µM

* * *

test system: SF-539 CNS; assay: NCI tumour cell line growth inhibition, 48 h; in the data active = GI50 below about 0.43 µM; inactive = the rest
Hi! Could you answer with just one of these? Yes = active, No = inactive

(Q) // outcome(item) with item = O=c1[nH]cnc2nc(-c3ccc(N(CCCl)CCCl)cc3)[nH]c12
(A) No

(Q) // outcome(item) with item = Cc1nc2sc(C(=O)Nc3cccc(Cl)c3C)c(N)c2cc1C(C)O (stereo not given)
(A) Yes

(Q) // outcome(item) with item = C=C1C[C@@H]2[C@H](CC[C@]3(C)C(=O)CC[C@@H]23)[C@@]2(C)C=CC(=O)C=C12
(A) No

(Q) // outcome(item) with item = S=C(Nc1ccccc1)N1CCn2c1nsc2=Nc1ccccc1
(A) No

(Q) // outcome(item) with item = NC1CCCCC1N.O=S(=O)([O-])CCCN1CCN(CCO)CC1.O=S(=O)([O-])CCCN1CCN(CCO)CC1.[Pt+4]
(A) No

(Q) // outcome(item) with item = Cc1cc(S(=O)(=O)Nc2nc3cc(-c4ccsc4)sc3c(=O)n2N)c(S)cc1Cl
(A) No

(Q) // outcome(item) with item = FC(F)(F)c1cc(NC2=NCCN=C(Nc3cc(C(F)(F)F)cc(C(F)(F)F)c3)SS2)cc(C(F)(F)F)c1
(A) No

(Q) // outcome(item) with item = Cc1[nH]n(-c2ccccc2)c(=O)c1C(=O)c1ccccc1
(A) No

(Q) // outcome(item) with item = CC(C)=CCC/C(C)=C/[C@H]1OC(=O)CC12C[C@H](O)C=CC2=O (stereo not given in full)
(A) Yes

(Q) // outcome(item) with item = CN(C)c1ccc(N=C(C#N)c2nc(N)nc(N3CCN(c4ccccc4)CC3)n2)cc1
(A) No
